Just for reference, PubChem BioAssay (NCI) is where these values come from.

System: DU-145 prostate
Experiment: NCI-60 one-dose screen, 48 h (100 = growth as untreated, 0 = no growth, -100 = all killed)
Conditions: 10 µM unless noted
The panel holds about 83,000 compounds, 20% with a hit somewhere; the sample as a whole holds those more often.

# compound, unitsLabel, growth
measured = [
    ("CC(=O)OCC1O[C@@H]([S-])C(OC(C)=O)[C@H](OC(C)=O)[C@@H]1OC(C)=O.[Au+].c1ccc(CN2[CH-]N(Cc3ccccc3)C(c3ccccc3)=C2c2ccccc2)cc1", "%", 68.5),
    ("CCCCCCCCCCCCCC[P+](CCCCCC)(CCCCCC)CCCCCC", "%", -100),
    ("CCc1ccccc1[C@@H]1C[C@]2(C)CCO[C@@H]2OO1", "%", 105),
    ("COc1cc([N+](=O)[O-])c2nc(C)ccc2c1[N+](=O)[O-]", "%", 84.9),
    ("C1CCC([PH+](C2CCCCC2)C2CCCCC2[PH+](C2CCCCC2)C2CCCCC2)CC1.[Au].[CH-]1CCCCC1CC1CCCC[N-]1 (stereo not given)", "%", -51.1),
]

---

Measured growth, listed per entry.
Tested on: OVCAR-3 ovarian
Experiment: NCI-60 one-dose screen, 48 h (100 = growth as untreated, 0 = no growth, -100 = all killed)
Details: 10 µM unless noted
About 83,000 compounds went through this panel and 20% of them were active in at least one assay; those are over-represented in the sample as a whole. The source made the active and inactive calls. Rule for the calls: active = growth percent below 10; inactive = the rest.

# compound, growth
records = [
    ("CCN(CC)c1ccc2c(c1)OC(N)=C(C#N)C2c1cc(OC)c2c(c1)OCO2 (configuration not stated)", "-30.7% (active)"),
    ("C[N+]12CN3CN(CN(C3)C1)C2", "115% (inactive)"),
    ("Nc1ccc(Cl)cc1", "112% (inactive)"),
    ("CC(=O)O[C@@H]1CC[C@]2(C)[C@H]3CC[C@]4(C)C(=O)CC[C@H]4[C@@H]3C[C@@H]3SC(N)=N[C@@]32C1", "36.2% (inactive)"),
    ("Cc1c(NS(=O)(=O)c2ccccc2)ccc([N+](=O)[O-])c1Cl", "42.2% (inactive)"),
    ("COC(=O)[C@@H](NC(=O)c1cn(CCC2CCCCC2)c2ccccc12)C(C)(C)C", "77.4% (inactive)"),
    ("C[C@@H]1CCC2[C@@H](C)[C@H](OC(=O)CCC(=O)NCCNC(=O)Cc3cc(=O)oc4cc(N(C)C)ccc34)O[C@@H]3O[C@]4(C)CC[C@@H]1C23OO4 (some centres not stated)", "37.7% (inactive)"),
    ("C/C1=C/C(=O)O[C@@H]2C[C@@H](CC[C@H](C)/C=C\\C=C\\CC1)O[C@@](O)([C@@H]1CSC(=O)N1CO)C2", "-7.34% (active)"),
    ("C[C@]12CC[C@H]3[C@@H](C[C@@H]4SC(Nc5ccccc5)=N[C@@]45CC(O)CC[C@]35C)[C@@H]1CCC2O (some centres not stated)", "-31.6% (active)"),
    ("COC(=O)[C@@]1(C)CC[C@]2(C)CC[C@]3(C)C4=CC(=O)c5c(cc(O)c(O)c5C)[C@]4(C)CC[C@@]3(C)[C@@H]2C1", "47.9% (inactive)"),
    ("Nc1c(F)cc(-c2nc3cc(F)ccc3[se]2)cc1F", "71.3% (inactive)"),
    ("Cn1cc(-c2csc(-c3cn(CCN4CCOCC4)c4ccc(F)cc34)n2)c2cccnc21", "32.3% (inactive)"),
    ("CC(C)[C@]12O[C@H]1[C@@H]1O[C@]13[C@]1(O[C@H]1C[C@H]1c4c(C(=O)c5ccccc5)oc(OC(=O)c5ccccc5)c4CC[C@@]13C)[C@@H]2O", "-57.5% (active)"),
    ("C[S+]1C=Cc2ccccc2C1c1ccc(Cl)cc1 (configuration not stated)", "89.8% (inactive)"),
    ("CCOC(=O)[C@@H](C)C[C@H](Cc1ccccc1)NC(=O)c1csc([C@@H](C[C@H](C(C)C)N(C)C(=O)[C@@H](NC(=O)[C@H]2CCCCN2C)C(C)(C)C)OC(C)=O)n1", "-6.79% (active)"),
    ("CC1(C)N=C(N)N=C(N)N1c1ccc(CCCCc2ccc(Cl)c(S(=O)(=O)F)c2)c(Cl)c1", "29.5% (inactive)"),
    ("Cc1ccccc1NC(=NCCCN1CC1)Nc1ccccc1C", "90.4% (inactive)"),
]
